- experiment: in vitro
- condition set: human, hela cells, % viability
Mark label 1 only when viability at 28.5 h, 10 µM stays strictly below 90%. Values equal to the cut-off are label 0.

mol: O=C(Cc1ccccc1)N1CCN(C(=O)c2ccco2)CC1
discrete label: label 0
//
mol: COCC(=O)N1CC[C@H](c2nnc(-c3ccc(C)cc3)o2)C1
discrete label: label 0
//
mol: CNS(=O)(=O)N1CCN(S(=O)(=O)NC)CC1
discrete label: label 0
//
mol: Cc1nn(C)cc1-c1cncn1CCCn1ccnc1C(C)C
discrete label: label 1
//
mol: CC(=O)Nc1ccc(S(=O)(=O)Nc2ccc(-c3csc(C)n3)cc2)cc1
discrete label: label 1
//
mol: Nc1ncc(-c2ccsc2)nc1NCc1ccncc1
discrete label: label 0
//
mol: Cc1ccc(S(=O)(=O)NCC(=O)Nc2ccc(Cl)cn2)cc1
discrete label: label 0
//
mol: Cc1nc(NS(=O)(=O)c2c(C)noc2C)sc1C(=O)N1CCOCC1
discrete label: label 0
//
mol: Cc1ccc(S(=O)(=O)N2CCC3(CC2)OCCO3)cc1Cl
discrete label: label 0
//
mol: O=C(O)Cc1ccc(OCC(=O)NCc2ccc(Cl)cc2Cl)cc1
discrete label: label 0

----------
- experiment: in vitro
- condition set: human, hela cells, % viability

compound: Cc1ccc(C(=O)N(Cc2ccncc2)C2CCCCC2)cc1C [CBK085386]
viability at 28.5 h, 10 µM (%): 97.9
//
compound: Cc1ccc(S(=O)(=O)N(CC(=O)Nc2cccnc2)c2cccc(Br)c2)cc1 [CBK264094]
viability at 28.5 h, 10 µM (%): 62.8
//
compound: CCCC(=O)Nc1c(C)nn(C)c1N1CCNCC1 [CBK045924T]
viability at 28.5 h, 10 µM (%): 87.2
//
compound: CN(C)c1ccc(CC(=O)NC2Cc3ccccc3C2)cc1 [CBK200360]
viability at 28.5 h, 10 µM (%): 105
//
compound: COC(=O)[C@@H]1Cc2ncn(C(C)C)c2CN1S(=O)(=O)c1ccc(C#N)cc1 [CBK288986]
viability at 28.5 h, 10 µM (%): 84
//
compound: Nc1nc(=O)c2cnc3ccc(C(=O)O)cc3c2s1 [CBK291239]
viability at 28.5 h, 10 µM (%): 96.7
//
compound: CC1CC(C)CN(C(=O)CN2C3CCC2CC(O)(c2ccco2)C3)C1 (stereo not drawn) [CBK284032]
viability at 28.5 h, 10 µM (%): 92.5
//
compound: N#CCCN(C(=O)NCc1ccc(Cl)c(Cl)c1)C1CCCCC1 [CBK156349]
viability at 28.5 h, 10 µM (%): 85.5
//
compound: CN(C)C1CCN(C(=O)c2ccc(-c3cnc(OCC4CCN(C(=O)OC(C)(C)C)CC4)nc3)cc2)C1 (stereo not drawn) [CBK169767]
viability at 28.5 h, 10 µM (%): 113
//
compound: C=CCC1(CC=C)CCN1C(=O)Cc1c(C)nc(SC)[nH]c1=O [CBK282661]
viability at 28.5 h, 10 µM (%): 86.9
//
compound: CC(C)(C)C(=O)N1CCC(n2nc(-c3ccco3)ccc2=O)CC1 [CBK282341]
viability at 28.5 h, 10 µM (%): 99.3
//
compound: Cc1ccc2c(c1)C(C)(c1ccccc1)CC(C)(C)N2C(=O)CSc1nncn1C (stereo not drawn) [CBK022397]
viability at 28.5 h, 10 µM (%): 98.8
//
compound: O=C(Nc1ccc(I)cc1C(=O)NCCN1CCOCC1)c1ccco1 [CBK266211]
viability at 28.5 h, 10 µM (%): 100
//
compound: CN(C)c1ccccc1-c1cc(NC2CCCCC2)ncn1 [CBK037041]
viability at 28.5 h, 10 µM (%): 105
//
compound: COC(=O)c1c(NC(=O)CC2Nc3cccc4cccc(c34)NC2=O)sc(C)c1C (stereo not drawn) [CBK267562]
viability at 28.5 h, 10 µM (%): 68.3
//
compound: OC[C@H]1CCCN1c1nc(Br)cn2c(-c3ccccn3)cnc12 [CBK094394]
viability at 28.5 h, 10 µM (%): 100
//
compound: CCc1ccc(-c2csc(NC(=O)CN3C(=O)CCC3=O)n2)cc1 [CBK287347]
viability at 28.5 h, 10 µM (%): 90.3
//
compound: Cc1nccn1CCC1CCN(C(=O)CCCn2ccnc2)CC1 [CBK281988]
viability at 28.5 h, 10 µM (%): 95.3
//
compound: O=C(c1ccccc1)C(Sc1nnc2sc3ccccc3n12)c1ccccc1 (stereo not drawn) [CBK265416]
viability at 28.5 h, 10 µM (%): 84.2
//
compound: CCn1c(SCc2cc(C)no2)nnc1C1CC1 [CBK297758]
viability at 28.5 h, 10 µM (%): 102
//
compound: CN1CCN(S(=O)(=O)c2cccc(C(F)(F)F)c2)CC1 [CBK062425]
viability at 28.5 h, 10 µM (%): 103

----------
# Lookup of reported viability at 28.5 h, 10 µM keyed by entry
- experiment: in vitro
- condition set: human, hela cells, % viability

compound: COc1ccc(S(=O)(=O)NC(C)C(=O)NCc2ccccn2)cc1Cl (stereo not drawn) [CBK269275]
viability at 28.5 h, 10 µM: 101%
--
compound: Cc1nc(CN2CCCN(C(=O)c3cccc(C#N)c3)CC2)cs1 [CBK305363]
viability at 28.5 h, 10 µM: 83.6%
--
compound: CCOc1ccccc1CNc1ccc(C2c3ccsc3CCN2C(=O)COC)cc1 (stereo not drawn) [CBK286461]
viability at 28.5 h, 10 µM: 88.5%

----------
- experiment: in vitro
- condition set: human, hela cells, % viability

molecule: O=C(OCc1ccccc1)N1CCN(c2ccccc2)CC1
units of measure: %
viability at 28.5 h, 10 µM: 116

molecule: O=C(Nc1nnc(C2=COCCO2)o1)c1cccc(Cl)c1
units of measure: %
viability at 28.5 h, 10 µM: 83.5

molecule: O=C(Nc1ccc2ncccc2c1)c1cnc(-c2cccc(C(F)(F)F)c2)c(-c2cccnc2)c1
units of measure: %
viability at 28.5 h, 10 µM: 89.9

molecule: O=C(CN(c1cc(Cl)ccc1Cl)S(=O)(=O)c1ccccc1)Nc1cccnc1
units of measure: %
viability at 28.5 h, 10 µM: 59.3

molecule: CC(=O)Nc1cc(I)cc(C(=O)O)c1 [CBK026452G]
units of measure: %
viability at 28.5 h, 10 µM: 104

molecule: OCCC1CCCCN1c1cncc(-c2cccs2)n1 (centres unmarked)
units of measure: %
viability at 28.5 h, 10 µM: 104

molecule: COc1cc(-c2cn3ccnc3c(NCC3CCOCC3)n2)cc(OC)c1OC
units of measure: %
viability at 28.5 h, 10 µM: 96.8

molecule: CCN(CC)CC(=O)Nc1sc2c(c1C#N)CCCC2
units of measure: %
viability at 28.5 h, 10 µM: 102

molecule: CCCn1nc(C)c(CN(C)Cc2n[nH]c3c2CCCC3)c1C
units of measure: %
viability at 28.5 h, 10 µM: 95.4

molecule: O=C(NC1CCS(=O)(=O)C1)c1cc(-c2cccnc2)cnc1NCc1ccc2c(c1)OCO2 (centres unmarked)
units of measure: %
viability at 28.5 h, 10 µM: 89.2

molecule: O=C(NCCc1c[nH]c2ccc(Cl)cc12)c1cccnc1
units of measure: %
viability at 28.5 h, 10 µM: 106

molecule: Cc1ccc(S(=O)(=O)N(CC(=O)Nc2ccc3c(c2)OCCO3)Cc2ccccc2F)cc1
units of measure: %
viability at 28.5 h, 10 µM: 83.3

molecule: CCOC(=O)C1(Cc2cc(-c3cccc(F)c3)no2)CCCNC1 (centres unmarked)
units of measure: %
viability at 28.5 h, 10 µM: 87.3

molecule: CC(C)[C@@H](Cn1nc(C2CC2)ccc1=O)NC(=O)C1CC1
units of measure: %
viability at 28.5 h, 10 µM: 86.1

molecule: O=C1CCCC[C@@H]2[C@@H](N1)[C@H](c1ccccc1)CN2Cc1ccc2ccccc2n1
units of measure: %
viability at 28.5 h, 10 µM: 93.1

molecule: Cc1cc(/C=C/C2=CCN(C)CC2)c(C)n1C1CC1
units of measure: %
viability at 28.5 h, 10 µM: 85.9

molecule: COCCN(Cc1cn2cccc(C(=O)OC)c2n1)Cc1ccco1
units of measure: %
viability at 28.5 h, 10 µM: 97.8

----------
- experiment: in vitro
- condition set: human, hela cells, % viability
observation type: viability at 28.5 h, 10 µM (%)

compound: CC(=O)NCCCCCC(=O)Nc1ccc(Cl)cn1 [CBK091341]
observation type: viability at 28.5 h, 10 µM
units of measure: %
measured: 92.3
//
compound: CCCCc1cc(C[C@@H]2C[C@H](NC(=O)N3CCOCC3)C2(C)C)no1 [CBK289257]
observation type: viability at 28.5 h, 10 µM
units of measure: %
measured: 87.9
//
compound: COc1ccc(S(=O)(=O)Nc2ccc(C(=O)O)cc2)cc1OC [CBK034048]
observation type: viability at 28.5 h, 10 µM
units of measure: %
measured: 96.2
//
compound: Oc1cc2cccnc2nc1-c1ccccc1 [CBK073697]
observation type: viability at 28.5 h, 10 µM
units of measure: %
measured: 115
//
compound: Cc1[nH]c(=O)[nH]c(=O)c1CCC(=O)N(C)CC(=O)Nc1cccc(F)c1 [CBK305703]
observation type: viability at 28.5 h, 10 µM
units of measure: %
measured: 99.6
//
compound: O=C(Nc1ccccc1C(=O)O)c1ccc(-c2ccc(Cl)cc2Cl)o1 [CBK078453]
observation type: viability at 28.5 h, 10 µM
units of measure: %
measured: 105
//
compound: O=C(NCc1ccccc1)c1ccc(N2CCOCC2)nc1 [CBK200244]
observation type: viability at 28.5 h, 10 µM
units of measure: %
measured: 96.3
//
compound: NC(=O)CN1CC2(CCN(CCCCC3NC(=O)NC3=O)CC2)c2ccccc21 (stereo not drawn) [CBK126799]
observation type: viability at 28.5 h, 10 µM
units of measure: %
measured: 95.9
//
compound: Cc1oc(-c2ccccc2)nc1C(=O)N1CCCN(C)CC1 [CBK073940C]
observation type: viability at 28.5 h, 10 µM
units of measure: %
measured: 105
//
compound: OC(CNc1nccnc1-c1cccc(C(F)(F)F)c1)COc1ccccc1 (stereo not drawn) [CBK037010]
observation type: viability at 28.5 h, 10 µM
units of measure: %
measured: 89.9
//
compound: O=C(c1ccc(OC(F)(F)F)cc1)N1CCC2(CCCNC2)C1 (stereo not drawn) [CBK137156C]
observation type: viability at 28.5 h, 10 µM
units of measure: %
measured: 87.7
//
compound: COc1ccc(-c2ccccc2)cc1NS(=O)(=O)c1ccc2c(c1)CCC(=O)N2 [CBK286368]
observation type: viability at 28.5 h, 10 µM
units of measure: %
measured: 100
//
compound: CCN(CC)C(=O)c1[nH]c2ccccc2c1NS(=O)(=O)c1c(C)noc1C [CBK050117]
observation type: viability at 28.5 h, 10 µM
units of measure: %
measured: 89.1
//
compound: COc1cc(/C=N/NC(=O)C(=O)Nc2ccc(C)c(C)c2)ccc1O [CBK262225]
observation type: viability at 28.5 h, 10 µM
units of measure: %
measured: 86
//
compound: O=C(CN1CCC(c2ccc(F)cc2)CC1)NCc1ccco1 [CBK283641]
observation type: viability at 28.5 h, 10 µM
units of measure: %
measured: 94.9
//
compound: CCC1CN(Cc2ccccc2)CCN1c1cncc(Cl)n1 (stereo not drawn) [CBK003645]
observation type: viability at 28.5 h, 10 µM
units of measure: %
measured: 112
//
compound: Cn1nccc1NS(=O)(=O)c1ccc(F)cc1 [CBK050484]
observation type: viability at 28.5 h, 10 µM
units of measure: %
measured: 106
//
compound: COc1cccc(/C=C2/NC(=O)N(c3cccc(Cl)c3)C2=O)c1OCc1cccc(C(=O)O)c1 [CBK265626]
observation type: viability at 28.5 h, 10 µM
units of measure: %
measured: 109
//
compound: Cc1ccccc1N1CC(C(=O)Nc2cccnc2)CC1=O (stereo not drawn) [CBK288138]
observation type: viability at 28.5 h, 10 µM
units of measure: %
measured: 88.3
//
compound: O=C(O)CCn1c2ccccc2c2ccccc21 [CBK000208]
observation type: viability at 28.5 h, 10 µM
units of measure: %
measured: 87.7
//
compound: COc1cccc(-c2ccc(NC(=O)CCC3C(=O)Nc4ccccc43)cc2)c1 (stereo not drawn) [CBK285851]
observation type: viability at 28.5 h, 10 µM
units of measure: %
measured: 116
